Source listed as the Immune Epitope Database (IEDB).

Molecular target: HLA-A*02:03
Assay: IEDB peptide-MHC binding, purified MHC/direct/fluorescence; filed as Kd, often an IC50 or EC50 that approximates it; bounds were set here for any values at or beyond the usual limits of such assays
Details: source organism: Bacillus cereus G9842
pKd: −log10 of the molar value.
Value Type: pKd

Enter recorded pKd with HLA-A*02:03 for "MFKNFPFFK" here.
≤ 4.70

---

Molecular target: HLA-A*03:01
Test: IEDB peptide-MHC binding, purified MHC/direct/fluorescence; filed as Kd, often an IC50 or EC50 that approximates it; bounds were set here for any values at or beyond the usual limits of such assays
Conditions: source organism: Corynebacterium efficiens
pKd: −log10 of the molar value.
Value Type: pKd

Enter recorded pKd with HLA-A*03:01 for "VQLQEYDTY" here.
≤ 4.70
